Reference for the values: PubChem BioAssay (NCI)

system: MOLT-4 leukemia; assay: NCI tumour cell line growth inhibition, 48 h
Experimental Endpoint: TGI

INSERT INTO results (compound, experimental_endpoint, result) VALUES
  ('COc1ccc(COc2ccc(Cc3cnc(N)nc3N)cc2OC)cc1', 'TGI', '> 25 µM'),
  ('COC1C[C@H](O[C@@H]2C[C@H](O[C@@H]3C[C@H](O[C@@H]4C(=O)c5c(cc6cc(O[C@H]7C[C@@H](O[C@H]8C[C@@H](O)[C@H](O)C(C)O8)[C@H](O)C(C)O7)c(C)c(O)c6c5O)C[C@H]4C(OC)C(=O)[C@@H](O)[C@@H](C)O)OC(C)[C@H]3O)OC(C)[C@@H]2O)OC(C)[C@@H]1O (some centres undefined)', 'TGI', '> 32.5 µM'),
  ('O=C(NNC(=O)c1ccccc1O)c1cccs1', 'TGI', '> 100 µM'),
  ('C=CCNc1nc2c(N)ncnc2s1', 'TGI', '> 10 µM'),
  ('Cc1cc(NCCCCCCCCNc2cc(C)nc3cc(N(C)C)ccc23)c2ccc(N(C)C)cc2n1', 'TGI', '> 100 µM'),
  ('O=c1[nH]c(C2CCCCC2)nc2ccc(Cl)cc12', 'TGI', '> 100 µM'),
  ('CC(C)c1cccc(C(C)C)c1NC(=O)/C(Cc1nc2ccc(Cl)cc2[nH]c1=O)=N\NC(=O)C[N+](C)(C)C', 'TGI', '> 100 µM'),
  ('c1ccc(C(OCCN2CC3CCC(C2)N3)c2ccccc2)cc1', 'TGI', '> 100 µM'),
  ('O=C1C2=C(c3ccccc31)C(c1ccc([N+](=O)[O-])cc1)NC(=S)N2 (centres undefined)', 'TGI', '> 100 µM'),
  ('Nc1cc2c3ccccc3ccc2c2ccccc12', 'TGI', '> 100 µM'),
  ('CC(=O)O[C@H]1C(=O)[C@@]2(C)C(C(OC(=O)c3ccccc3)[C@]3(O)CC(OC(=O)C(O)C(NC(=O)c4cccc(Cl)c4)c4ccccc4)C(C)=C1C3(C)C)[C@]1(OC(C)=O)CO[C@@H]1C[C@@H]2O (some centres undefined)', 'TGI', '> 10 µM'),
  ('O=C(C#Cc1ccccc1)N1CCCCC1', 'TGI', '> 100 µM'),
  ('CC(C)(C)c1cc([Si](C)(C)C)c(C#N)c([Si](C)(C)C)c1', 'TGI', '> 100 µM'),
  ('CSCCC(NOC(=O)Cc1ccccc1)P(=O)(O)c1ccccc1 (centres undefined)', 'TGI', '> 100 µM'),
  ('O=Cc1cc2sc(C=O)cc2s1', 'TGI', '> 100 µM'),
  ('Cc1nc(-n2nc(-c3ccccc3)cc2-c2ccccc2)sc1C(/C=C\c1ccc([N+](=O)[O-])cc1)=N/NC(=S)NN', 'TGI', '> 100 µM'),
  ('O=C(NC1CCCCC1)N1CCNC1=S', 'TGI', '> 100 µM'),
  ('O=S1(=O)CC#CC[C@@H](CO)[C@@H](CO)CC#CC1', 'TGI', '> 100 µM'),
  ('COc1ccc(CC2OC3(CCCCC3)CC3CCCCN32)cc1 (centres undefined)', 'TGI', '> 100 µM'),
  ('O=S(=O)(O)c1ccc([Se][Se]c2ccc(S(=O)(=O)O)cc2)cc1', 'TGI', '> 100 µM'),
  ('Nc1nc(Cl)cc(OCC2(CO)CCCCC2)n1', 'TGI', '> 100 µM'),
  ('O=C(N/N=C/c1ccc(O)cc1)NNCCO', 'TGI', '> 100 µM'),
  ('O=C(O)C(=Cc1ccc(-c2ccc([N+](=O)[O-])cc2)o1)C(=O)O', 'TGI', '> 100 µM'),
  ('CN1CN(c2ccccc2)C2(CCN(C(=O)OC(C)(C)C)CC2)C1=O', 'TGI', '> 100 µM');
